- Assay system: Human IP6K1 (Homo sapiens, UniProt Q92551)
- Construct: GST (N, cleaved yes); made in house; host or cells: C43 E. coli, pGEX-6P-2
- Sequence (Q92551 whole entry): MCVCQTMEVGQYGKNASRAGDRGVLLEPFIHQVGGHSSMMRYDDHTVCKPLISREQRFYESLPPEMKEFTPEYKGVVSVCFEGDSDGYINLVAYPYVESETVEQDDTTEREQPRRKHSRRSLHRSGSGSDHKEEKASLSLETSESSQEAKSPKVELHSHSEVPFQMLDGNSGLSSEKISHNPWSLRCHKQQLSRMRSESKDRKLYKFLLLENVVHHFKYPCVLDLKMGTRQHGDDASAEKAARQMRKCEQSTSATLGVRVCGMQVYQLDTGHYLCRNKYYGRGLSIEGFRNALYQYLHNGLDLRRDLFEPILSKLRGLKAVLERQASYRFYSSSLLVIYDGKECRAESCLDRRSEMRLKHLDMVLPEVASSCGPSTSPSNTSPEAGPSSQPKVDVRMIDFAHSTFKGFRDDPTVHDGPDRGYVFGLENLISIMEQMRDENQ
- Assay protocol: IP6K1 high-throughput screen of the Sigma LOPAC (ADP-Glo Max, single point);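 note: final compound concentration 10µM in 5% DMSO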
- Format: biochemical
- Condition label: LOPAC single-point screen, ADP-Glo Max raw signal per well
Structures can show the parent of a compound that is named as a salt.
# Raw Signal per entry

# Compound, Raw Signal
rows = [
    ("C[N+]1(C)[C@@H]2CC(OC(=O)[C@H](CO)c3ccccc3)C[C@H]1[C@@H]1O[C@@H]12.O=[N+]([O-])[O-] (single isomer, unassigned; (-)) [(-)-Scopolamine methyl nitrate]", 57036),
    ("CCCn1c(=O)c2[nH]c(C3CCCC3)nc2n(CCC)c1=O", 55782),
    ("O=C(O)/C=C\\C(=O)O.O=C(O)/C=C\\C(=O)O.c1ccc2nc(N3CCNCC3)ccc2c1 [Quipazine dimaleate]", 57228),
    ("O=c1nc2[nH]c3ccccc3nc-2c(=O)[nH]1", 56241),
    ("Cn1c(=O)c2[nH]c(-c3ccccc3)nc2n(C)c1=O", 54517),
    ("NC(=O)C(=O)O [Sodium Oxamate]", 56283),
    ("CN(C)CC[C@@H](c1ccc(Cl)cc1)c1ccccn1 [(+)-Chlorpheniramine maleate]", 57307),
    ("CCN1CCC[C@H]1CNC(=O)c1cc(S(N)(=O)=O)ccc1OC [(-)-Sulpiride]", 56775),
]

###

- Assay system: Human IP6K1 (Homo sapiens)
- Construct: GST (N, cleaved yes); made in house; host or cells: C43 E. coli, pGEX-6P-2
- Assay protocol: IP6K1 inhibition dose-response assay (ADP-Glo Max)
- Format: biochemical
- Condition label: 50μM IP6, 300μM ATP, 60nM IP6K1, 15 minutes; read-out: IC50 IP6K1

# Smiles record, Assay system, Unit text, IC50
records = [
    ("O=[N+]([O-])c1ccc(CNc2nc(NCc3cccc(C(F)(F)F)c3)nc3nc[nH]c23)cc1", "Human IP6K1 (Homo sapiens)", "µM", 24),
]

###

# Raw Signal per entry
- Assay system: Human IP6K1 (Homo sapiens)
- Construct: GST (N, cleaved yes); made in house; host or cells: C43 E. coli, pGEX-6P-2
- Assay protocol: IP6K1 high-throughput screen of the Sigma LOPAC (ADP-Glo Max, single point);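 note: final compound concentration 10µM in 5% DMSO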
- Type: biochemical
- Condition label: LOPAC single-point screen, ADP-Glo Max raw signal per well
Structures can show the parent of a compound that is named as a salt.

# Compound, Raw Signal
records = [
    ("CCCn1cnc2c1c(=O)n(CCCCC(C)=O)c(=O)n2C", 54119),
    ("O=C(Nc1ccc([N+](=O)[O-])cc1Cl)c1cc(Cl)ccc1O [Niclosamide]", 53914),
    ("Cl.Cn1ccc2cc(NC(=O)Nc3cccnc3)ccc21 [SB 200646 hydrochloride]", 55663),
    ("CCCCCC(O)CCCC(=O)O.[Na] (stereo not drawn) [5-hydroxydecanoic acid sodium]", 53435),
    ("CCCOC(=O)c1c(-c2ccccc2)nc(CC)c(C(=O)SCC)c1CCC", 53053),
    ("CC(C)NC[C@H](O)COc1ccc(CC(N)=O)cc1 [S(-)-Atenolol]", 56960),
    ("Br.C=CCN1CCc2c(cc(O)c(O)c2Br)[C@@H](c2ccccc2)C1 [R(+)-6-Bromo-APB hydrobromide]", 58651),
    ("CCCCCCCCCC[Si](C)(C)CCC(=O)NC(Cc1ccc(C)cc1)c1ccccc1 (stereo not drawn)", 56427),
    ("O=C(O)CNC(=O)C(CS)Cc1ccccc1 (racemic)", 55327),
    ("C#CCOC(=O)C1=CCCN(C)C1 [Arecaidine propargyl ester hydrobromide]", 56259),
    ("Cl.Clc1cc(I)cc(Cl)c1NC1=NCCN1 [p-Iodoclonidine hydrochloride]", 52843),
    ("CC(C)C[C@H](N)CSSC[C@@H](N)CC(C)C.Cl.Cl [L-Leucinethiol, oxidized dihydrochloride]", 55535),
    ("CCNC(=O)[C@H]1O[C@@H](n2cnc3c(N)ncnc32)[C@H](O)[C@@H]1O", 52988),
    ("O=C(O)C1=CCCNC1 [Guvacine hydrochloride]", 56288),
    ("Nc1ccncc1", 56638),
    ("COC(=O)C1=CCCN(C)C1 [Arecoline hydrobromide]", 57110),
    ("Cc1ccccc1CNc1ncnc2c1ncn2[C@@H]1O[C@H](CO)[C@@H](O)[C@H]1O", 54359),
    ("O=C1NCC2(CCN(CCc3ccccc3)CC2)O1 [Fenspiride hydrochloride]", 54758),
]

###

# Raw Signal per entry
- Assay system: Human IP6K1 (Homo sapiens, UniProt Q92551)
- Construct: GST (N, cleaved yes); made in house; host or cells: C43 E. coli, pGEX-6P-2
- Assay protocol: IP6K1 high-throughput screen of the Sigma LOPAC (ADP-Glo Max, single point);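 note: final compound concentration 10µM in 5% DMSO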
- Type: biochemical
- Condition label: LOPAC single-point screen, ADP-Glo Max luminescence raw signal per well
Where a name gives a salt, the structure may show the parent alone.

# Compound, Raw Signal
measured = [
    ("CC(=O)OC(C)C[N+](C)(C)C.[Cl-] (stereo not drawn) [Acetyl-beta-methylcholine chloride]", 54689),
    ("N#CC(C#N)=C(N)/C(C#N)=C/c1cc(O)c(O)c(O)c1", 44032),
    ("CNc1ncnc2c1ncn2[C@H]1C[C@H](OP(=O)(O)O)[C@@H](COP(=O)(O)O)O1", 51414),
    ("OCC1OC(n2cnc3ccccc32)C(O)C1O (stereo not drawn)", 49673),
    ("O=C1Nc2ccc(I)cc2/C1=C/c1cc(Br)c(O)c(Br)c1", 51521),
    ("NC/C=C\\C(=O)O [cis-4-Aminocrotonic acid]", 52551),
    ("C[C@@]1(C2CCCC2)Cc2cc(OCC(=O)O)c(Cl)c(Cl)c2C1=O [R(+)-IAA-94]", 46670),
    ("CCCc1c(-c2ccc(O)cc2)nn(-c2ccc(O)cc2)c1-c1ccc(O)cc1", 52149),
    ("NCCCNCCCCNCCCN [Spermine tetrahydrochloride]", 52988),
    ("C[N+](C)(C)CCOC(=O)CCC(=O)OCC[N+](C)(C)C [Succinylcholine chloride]", 51489),
    ("CC(C)NCC(O)COc1cccc2[nH]ccc12 (stereo not drawn)", 62809),
    ("CN(C)CCOC(C)(c1ccccc1)c1ccccn1 (stereo not drawn) [Doxylamine succinate]", 49925),
    ("CC(C(=O)O)c1ccc(CC2CCCC2=O)cc1 (stereo not drawn)", 49153),
    ("OC[C@H]1O[C@@H](n2cnc3c(NCCc4ccccc4)ncnc32)[C@H](O)[C@@H]1O", 52095),
    ("CCOC(=O)N1CCC(=C2c3ccc(Cl)cc3CCc3cccnc32)CC1", 49648),
    ("COc1ccc(CNC(=O)/C=C/c2ccc3[nH]cc(CCN(C)C)c3c2)cc1", 54448),
    ("NC/C=C/C(=O)O [(E)-4-amino-2-butenoic acid]", 52183),
    ("O=C1NC(=O)C(c2ccccc2)(c2ccccc2)N1 [Phenytoin sodium]", 66782),
    ("Oc1cc(O)cc(/C=C/c2ccc(O)c(O)c2)c1", 49635),
    ("O=C(O)CCCCCCC1C(=O)NC(=O)N1CCC(O)C1CCCCC1 (stereo not drawn) [BW 245C]", 64569),
    ("Nc1ncnc2c1nc(Sc1ccc(Cl)cc1)n2C1OC2COP(=O)(O)OC2C1O (stereo in doubt) [8-(4-Chlorophenylthio)-cAMP sodium]", 54805),
    ("O=C1C=CC(=O)C=C1", 51681),
    ("CC[C@H](C)C(=O)O[C@H]1CCC=C2C=C[C@H](C)[C@H](CC[C@@H]3C[C@@H](O)CC(=O)O3)[C@H]21", 50064),
    ("C[N+](C)(C)CCOC(=O)CBr.[Br-] [Bromoacetylcholine bromide]", 53767),
    ("CCCCCCCCCCCCCCCCCCNC(=O)OCC(COP(=O)([O-])OCC[n+]1ccsc1)OC (stereo not drawn)", 52703),
    ("N#C/C(=C\\c1ccc(O)c(O)c1)C(N)=S", 42103),
    ("CNC(=O)[C@H]1O[C@@H](n2cnc3c(NCc4cccc(I)c4)ncnc32)[C@H](O)[C@@H]1O", 49701),
    ("Cl.NC(N)=NCCNS(=O)(=O)c1cccc2cnccc12 [HA-1004 hydrochloride]", 50838),
    ("NC(Cc1cc(O)c(O)cc1O)C(=O)O (racemic) [6-Hydroxy-DL-Dopa]", 10170),
    ("Cl.Nc1ccn([C@@H]2O[C@H](CO)[C@@H](O)[C@@H]2O)c(=O)n1", 65878),
    ("CN(C)CCCO[C@@H]1[C@H]2OC(C)(C)O[C@H]2O[C@@H]1[C@H](O)CO [Amiprilose hydrochloride]", 53728),
    ("CN1CCC(=C2c3ccccc3CC(=O)c3sccc32)CC1 [Ketotifen fumarate]", 50782),
    ("CC1=C(C)C(=O)C(CCCCC#CCCCC#CCO)=C(C)C1=O", 50345),
    ("C[C@H]1c2cccc(O)c2C(=O)C2=C(O)[C@]3(O)C(=O)C(C(N)=O)=C(O)[C@@H](N(C)C)[C@@H]3[C@@H](O)[C@@H]21 [Doxycycline hydrochloride]", 51944),
    ("COc1ccc2[nH]c3c(c2c1)CCNC3", 69821),
    ("CNC(=O)[C@H]1O[C@@H](n2cnc3c(NCc4ccc(N)cc4)ncnc32)[C@H](O)[C@@H]1O", 53262),
]
